The entries below are paired with their reported inhibition.
Target: L-lactate dehydrogenase (Plasmodium falciparum (isolate CDC / Honduras))
Assay: PfLDH activity inhibition – cell lysate, 3D7 strain, counter-screen for P. falciparum growth inhibition project (AID 2304);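 further: 0% = vehicle and 100% = reference inhibitor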
Settings: P. falciparum 3D7 crude extract, LDH APAD/NBT absorbance; at 2 µM; stronger effect = higher value
property-label: inhibition (%)

molecule=C[C@H](NC(=O)c1c(CN2CCN(C(=O)C(C)(C)C)CC2)c(-c2cccs2)nc2ccccc12)C1CCCCC1 property_label=inhibition readout_unit=% number=3
molecule=O=C(Cc1n[nH]c(=O)c2ccccc12)Nc1cccc(C(=O)Nc2cccc(C(F)(F)F)c2)c1 property_label=inhibition readout_unit=% number=-6
molecule=O=C(Nc1ccc(N2CCN(Cc3ccccc3Cl)CC2)cc1)c1ccc([N+](=O)[O-])o1 property_label=inhibition readout_unit=% number=-4
molecule=O=C(/C=C/c1ccc(Cl)c(Cl)c1)NCCCCCN1CCC(NC(=O)Nc2ccc(Cl)c(Cl)c2)CC1 property_label=inhibition readout_unit=% number=0
molecule=O=C(Nc1ccc(C(F)(F)F)cc1)NC1CCN(c2ccnc3ccccc23)CC1 property_label=inhibition readout_unit=% number=-2
molecule="O=S(=O)(Nc1cccc(CCN2CCCCC2CCN2CCCC2)c1)c1ccc(Oc2ccccc2)cc1 (centres undefined)" property_label=inhibition readout_unit=% number=-2
molecule=COCCNC(=O)C1CCN(C(c2ccc(Cl)cc2)c2ccc(Cl)cc2)CC1 property_label=inhibition readout_unit=% number=-3
molecule=Cc1cc(-c2ccc(CNC3CCN(C)CC3)cc2)ccc1S(=O)(=O)NCc1ccccc1 property_label=inhibition readout_unit=% number=5
molecule=CNCCNCc1cccc(-c2cccc(-c3nc4c(C)cccc4[nH]3)c2)c1 property_label=inhibition readout_unit=% number=1
